Measured Ceff, listed per entry.
# Procedure summary: Cysteine effective concentration (Ceff) measurement, thiol-disulfide equilibrium relative to glutathione
# Assay type: physicochemical
# Conditions used: Table 2, bhpW and CD4 C′-C″ loop peptides, pH 8.10, 20° C.
# Experimental: Cysteine Effective Concentration Measurements. Glutathione stock solutions were prepared by mixing 3 volumes of 0.2 M reduced glutathione (GSH) with 1 volume of 0.1 M oxidized glutatione (GSSG). […] After 1.5 h, successive aliquots (100 μL) were removed with a gastight syringe, immediately quenched by discharge into 400 μL of 3.1 mM HCl, and analyzed by HPLC with a minimum of delay. […]
Positions of bridges follow the written chain, without caps; N, C: chain ends. No end group written: not given here.
State the answer as a number, implicitly in mM.

Worked examples, 4 substances total:
- Substance: "SCTWQGSFLTCK-NH2 (disulfide 2-11 (inferred)) [cd2a]"
  Ceff / mM: 120
- Substance: "SCGNQGSFLTCK-NH2 (disulfide 2-11 (inferred)) [cd1a]"
  Ceff / mM: 45
- Substance: "SCTWEGNKLTCK-NH2 (disulfide 2-11 (inferred)) [bhpW with terminal serine and lysine added as a control]"
  Ceff / mM: 273
- Substance: "Ac-CTWEGNKLTC-NH2 (disulfide 1-10 (inferred)) [bhpW, tryptophan analog of the model β-hairpin peptide bhp]"
  Ceff / mM: 210

Note: attention shifts to another entry.
### Prompt Would you mind telling me what Ceff value was observed for SCGWQGSFLTCK-NH2 (disulfide 2-11 (inferred)) ?
### Response 48

###

# Procedure summary: Thiol-disulfide exchange equilibrium (GSH/GSSG redox buffer): intramolecular disulfide formation between two Cys of reduced peptide; Ceff=([pep_ox]/[pep_red])x([GSH]^2/[GSSG]), HPLC after acid quench
# Conditions used: the molecule shown is the open-chain precursor; 32-membered ring; water, ca. 0.15 M Tris, 1 mM EDTA, pH 8.10, 25 mM total glutathione; 0.375 mM; 20.0 °C; 1.5 h
Readout: ring closure, Ceff (mM)
State the answer as a number, implicitly in mM.

- Line notation: "CC(=O)N[C@@H](CS)C(=O)N[C@H](C(=O)N[C@@H](Cc1ccccc1)C(=O)N[C@@H](CCC(=O)O)C(=O)NCC(=O)N[C@@H](CC(N)=O)C(=O)N[C@@H](CCCCN)C(=O)N[C@@H](CC(C)C)C(=O)N[C@H](C(=O)N[C@@H](CS)C(N)=O)[C@@H](C)O)[C@@H](C)O"
  ring closure, Ceff / mM: 88
- Line notation: "CC(=O)N[C@@H](CS)C(=O)N[C@H](C(=O)N[C@@H](CC(N)=O)C(=O)N[C@@H](CCC(=O)O)C(=O)NCC(=O)N[C@@H](CC(N)=O)C(=O)N[C@@H](CCCCN)C(=O)N[C@@H](CC(C)C)C(=O)N[C@H](C(=O)N[C@@H](CS)C(N)=O)[C@@H](C)O)[C@@H](C)O"
  ring closure, Ceff / mM: 52

Note: attention shifts to another entry.
### Prompt Would you mind telling me what ring closure, Ceff value was observed for CC(=O)N[C@@H](CS)C(=O)N[C@H](C(=O)N[C@@H](CCCCN)C(=O)N[C@@H](CCC(=O)O)C(=O)NCC(=O)N[C@@H](CC(N)=O)C(=O)N[C@@H](CCCCN)C(=O)N[C@@H](CC(C)C)C(=O)N[C@H](C(=O)N[C@@H](CS)C(N)=O)[C@@H](C)O)[C@@H](C)O ?
### Response 52
